- Tested on: Fibroblast
- Experiment summary: Incucyte cell viability with human fibroblast; note: unitless GR value; below 1 slowed growth and below 0 cell loss
- Type: toxicity, cell-based
- Test settings: 18 h, 10 µM, compound concentration 10 uM, replicate number 1, timepoint 18 hours
Note to self: class = bucket of Growth Rate, per class 0 (below -0.3), class 1 (-0.3 to below 0.5), class 2 (0.5 or more)

Molecule: Br.Br.c1ncc(CC2CCNCC2)[nH]1
Class name: class 2
--
Molecule: CCOC(=O)N[C@@H]1CC[C@@H]2[C@@H](C1)C[C@H]1C(=O)O[C@H](C)[C@H]1[C@H]2/C=C/c1ccc(-c2cccc(F)c2)cn1 [VORAPAXAR]
Class name: class 1
--
Molecule: CN[C@@H]1CCc2[nH]c3ccc(C(N)=O)cc3c2C1.O.O=C(O)CCC(=O)O [FROVATRIPTAN SUCCINATE]
Class name: class 2
--
Molecule: Cc1cc(O)c(-c2ccc([C@@H](C)CN(C)C)cc2)c2c1[nH]c(=O)c1sccc12
Class name: class 0
--
Molecule: CCCCC1=NC2(CCCC2)C(=O)N1Cc1ccc(-c2ccccc2-c2nnn[nH]2)cc1 [IRBESARTAN]
Class name: class 1
--
Molecule: NC(=O)c1cccc(-c2cc(Nc3ccc(OC(F)(F)F)cc3)ncn2)c1
Class name: class 0
--
Molecule: CCOc1c2c(c(OCC)c3ncccc13)CN(c1ccc(CS(=O)(=O)NC(=O)Cc3ccccc3OC)cc1C)C2=O
Class name: class 1
--
Molecule: COc1cc(Br)c(S(=O)(=O)Nc2ccc(C(F)(F)F)c(O[C@@H]3CCN(C)C3)c2)cc1OC
Class name: class 1
--
Molecule: Cn1cc(C(=O)OCC2CCN(CCNS(C)(=O)=O)CC2)c2ccccc21
Class name: class 1
--
Molecule: Cc1cc(Nc2ncc(Cl)c(Nc3ccccc3S(=O)(=O)C(C)C)n2)c(OC(C)C)cc1C1CCNCC1 [CERITINIB]
Class name: class 0
--
Molecule: OCCN1CCN(CCCN2c3ccccc3Sc3ccc(Cl)cc32)CC1 [PERPHENAZINE]
Class name: class 0
--
Molecule: Cl.N=C(N)NC(=O)Cc1c(Cl)cccc1Cl [GUANFACINE HYDROCHLORIDE]
Class name: class 2
--
Molecule: C[C@H]1[C@H](OC(=O)CCC(=O)O)O[C@@H]2O[C@@]3(C)CC[C@H]4[C@H](C)CC[C@@H]1[C@@]24OO3 [ARTESUNATE]
Class name: class 0

----------
- System: Fibroblast
- Experiment summary: Incucyte cell viability with human fibroblast; note: unitless GR value; below 1 slowed growth and below 0 cell loss
- Type: toxicity, cell-based
- Test settings: 18 h, 10 µM, compound concentration 10 uM, replicate number 1, timepoint 18 hours
The reader will find reported Growth Rate values listed item by item below.

Smiles notation: C=CCNc1ncnc2ccc(Br)cc12
Growth Rate: 0.3
--
Smiles notation: Cn1cnc(-c2cc3nccc(Oc4ccc(NC(=S)NC(=O)Cc5ccccc5)cc4F)c3s2)c1
Growth Rate: 0.43
--
Smiles notation: C[C@@H](OC[C@@]1(c2ccccc2)CC[C@]2(CCC(=O)N2)CN1)c1cc(C(F)(F)F)cc(C(F)(F)F)c1
Growth Rate: 0.57
--
Smiles notation: C[C@H](CCC(=O)O)[C@H]1CC[C@H]2[C@@H]3CC[C@@H]4C[C@H](O)CC[C@]4(C)[C@H]3CC[C@]12C
Growth Rate: 0.36

----------
- Test system: HEK-293T
- Experiment summary: Incucyte cell viability with HEK293T; note: unitless GR value; below 1 slowed growth and below 0 cell loss
- Format: toxicity, cell-based
- Test settings: human, 24 h, 10 µM, compound concentration 10 uM, replicate number 1, timepoint 24 hours
Quick rule for you: Growth Rate at 0.9 or higher means label 1, lower means label 0.

Compound: Cc1ccccc1N1CCN(CCc2nnc3n2CCCC3)CC1.Cl [DAPIPRAZOLE HYDROCHLORIDE]
Class name: label 1
--
Compound: CCC(C)n1ncn(-c2ccc(N3CCN(c4ccc(OC[C@@H]5CO[C@@](Cn6cncn6)(c6ccc(Cl)cc6Cl)O5)cc4)CC3)cc2)c1=O.CCC(C)n1ncn(-c2ccc(N3CCN(c4ccc(OC[C@H]5CO[C@](Cn6cncn6)(c6ccc(Cl)cc6Cl)O5)cc4)CC3)cc2)c1=O (some centres undefined)
Class name: label 0
--
Compound: N=C(N)NCCC[C@@H](NC(=O)C(c1ccccc1)c1ccccc1)C(=O)NCc1ccc(CNC(N)=O)cc1.O=C(O)C(F)(F)F.O=C(O)C(F)(F)F
Class name: label 1
--
Compound: Oc1c(CN2CCN(c3ccccn3)CC2)cc(Cl)c2cccnc12
Class name: label 0
--
Compound: COc1cc(Nc2ncc3c(n2)-c2ccc(Cl)cc2C(c2c(F)cccc2OC)=NC3)ccc1C(=O)O [ALISERTIB]
Class name: label 0
--
Compound: CCCCCCCC/C=C\CCCCCCCC(N)=O [OLEAMIDE]
Class name: label 1
--
Compound: CCCCC[C@H](O)/C=C/[C@H]1CCC(=O)[C@@H]1CCCCCCC(=O)O
Class name: label 0
--
Compound: CN1CCN(c2nc3cc(C(F)(F)F)ccc3n3cccc23)CC1.O=C(O)/C=C\C(=O)O.O=C(O)/C=C\C(=O)O
Class name: label 0
--
Compound: CC(COc1ccccc1)N(CCCl)Cc1ccccc1.Cl (centres undefined) [PHENOXYBENZAMINE HYDROCHLORIDE]
Class name: label 0
--
Compound: CCc1cc2c(cc1-c1cccc(S(=O)(=O)F)c1)C(C)(C)c1[nH]c3cc(C#N)ccc3c1C2=O
Class name: label 1
--
Compound: CC(C)c1c(NC(=O)Nc2ccc(Cl)cc2)c(=O)n(-c2ccccc2)n1C
Class name: label 0
--
Compound: O=C(NCC(=O)N1CC[C@H](N[C@H]2CC[C@@](O)(c3ccc(-c4ncccn4)cn3)CC2)C1)c1cccc(C(F)(F)F)c1 [PF-4136309]
Class name: label 1
--
Compound: CNC(=O)[C@H]1O[C@@H](n2cnc3c(NCc4cccc(I)c4)ncnc32)[C@H](O)[C@@H]1O [IB-MECA]
Class name: label 0
--
Compound: Cc1sc2c(c1C)C(c1ccc(Cl)cc1)=N[C@@H](CC(=O)NCCCCCCCCNC(=O)COc1cccc3c1C(=O)N(C1CCC(=O)NC1=O)C3=O)c1nnc(C)n1-2 (some centres undefined)
Class name: label 0
--
Compound: Cc1ccc(OCC(O)C(C)NC(C)C)c2c1CCC2.Cl (centres undefined)
Class name: label 0
--
Compound: CCc1cc2cc(NS(=O)(=O)c3ccc(C#N)cc3)ccc2n(CC)c1=O
Class name: label 0
--
Compound: CN(C(=O)c1ccccc1)c1cc(N(C)c2ccc3c(c2)CCc2ccc(C(=O)NCCN4CCOCC4)cc2C3=O)ccc1F [FM-743]
Class name: label 0
--
Compound: Cc1ccc(Cn2nc(C(=O)N[C@@H]3C(C)(C)[C@@H]4CC[C@@]3(C)C4)cc2-c2ccc(Cl)c(C)c2)cc1
Class name: label 1
--
Compound: Cc1cc(O)c(-c2ccc([C@@H](C)CN(C)C)cc2)c2c1[nH]c(=O)c1sccc12
Class name: label 0
--
Compound: COc1ccc2nc3ccc(OC)cc3c(SCCCN)c2c1.Cl
Class name: label 0
--
Compound: Nc1nc(Nc2ccccc2)nc2c1ncn2[C@@H]1O[C@H](CO)[C@@H](O)[C@H]1O
Class name: label 0
--
Compound: CC1=C(C)C(=O)C(C(C)(C)CC(=O)N(CCCCSC[C@H]2O[C@@H](n3cnc4c(N)ncnc43)[C@@H]3OC(C)(C)O[C@@H]32)Cc2cccc(-c3ccc(Cl)cc3)c2)=C(C)C1=O
Class name: label 1
--
Compound: COc1ccc(NC(=O)c2ccc(-c3ccc(-c4noc(C)n4)cc3C)cc2)cc1OCCN(C)C.Cl
Class name: label 0
--
Compound: NCCc1cn(S(=O)(=O)c2c(Cl)nc3sccn23)c2ccccc12.O=C(O)C(=O)O
Class name: label 0
--
Compound: COc1cc2nc(N3CCN(C(=O)COc4c(OC)cccc4C(C)C)CC3)nc(N)c2cc1OC.Cl.Cl
Class name: label 0
--
Compound: CC[C@@H](C)Nc1nc(C)nc2c(-c3ccc(OC)nc3C)c(C)nn12 [PEXACERFONT]
Class name: label 0
--
Compound: CCCCCCCCc1ccc(CC[C@](N)(CO)COP(=O)(O)O)cc1 [FTY720-P]
Class name: label 0
--
Compound: COC[C@@H](CC(C)C)NC1=N/C(=C\c2ccc3ncsc3c2)C(=O)N1C
Class name: label 0

Source listed as ChEMBL document CHEMBL5058564.
